// provenance: ChEMBL document CHEMBL4028890

Target: 5-hydroxytryptamine receptor 2C (Homo sapiens)
Sequence (whole entry): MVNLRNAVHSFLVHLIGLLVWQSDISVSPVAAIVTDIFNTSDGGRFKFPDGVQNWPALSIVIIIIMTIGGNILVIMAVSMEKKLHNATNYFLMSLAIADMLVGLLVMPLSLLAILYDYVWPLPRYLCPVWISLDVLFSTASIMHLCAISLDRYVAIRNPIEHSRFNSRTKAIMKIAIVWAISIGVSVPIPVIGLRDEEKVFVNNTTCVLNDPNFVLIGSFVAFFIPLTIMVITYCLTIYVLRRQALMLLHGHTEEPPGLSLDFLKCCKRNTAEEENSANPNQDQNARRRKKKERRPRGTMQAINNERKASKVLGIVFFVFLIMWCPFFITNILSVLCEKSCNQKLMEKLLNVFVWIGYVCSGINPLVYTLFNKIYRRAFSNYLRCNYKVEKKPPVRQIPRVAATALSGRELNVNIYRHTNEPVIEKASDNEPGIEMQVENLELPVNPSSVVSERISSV
Assay: Positive allosteric modulation of human 5-HT2C receptor expressed in human HeLa-K1 cells assessed as potentiation of 5-HT-induced inositol monophosphate release at 10 uM after 20 mins by HTRF assay relative to control
Type: functional, cell-based
Attribute: Activity
Reply numerically in %, unit not repeated.

Past entries and their recorded results:
{"MOLECULAR STRING": "c1cncc(NCc2cn(CC3CC3)c3ccccc23)c1", "Activity, %": 0}
{"MOLECULAR STRING": "Clc1ccc(Cn2cc(CNc3cccnc3)c3ccccc32)cc1", "Activity, %": 13}
{"MOLECULAR STRING": "c1ccc(Cn2cc(CNc3cccnc3)c3ccccc32)cc1", "Activity, %": 35}

Form entry - test system: 5-hydroxytryptamine receptor 2C (Homo sapiens); read-out: Activity; compound: `FC(F)(F)c1ccccc1Cn1cc(CNc2cccnc2)c2ccccc21`
9

Checklist item: Activity tested on 5-hydroxytryptamine receptor 2C (Homo sapiens), entry `Fc1ccc(Cn2cc(CNc3cccnc3)c3ccccc32)cc1` , value?
9

Give 5-hydroxytryptamine receptor 2C (Homo sapiens) Activity for `Fc1cc(Cl)ccc1Cn1cc(CNc2cccnc2)c2ccccc21`
9

====

Target: 5-hydroxytryptamine receptor 2C (Homo sapiens) (UniProt P28335)
Sequence (whole entry): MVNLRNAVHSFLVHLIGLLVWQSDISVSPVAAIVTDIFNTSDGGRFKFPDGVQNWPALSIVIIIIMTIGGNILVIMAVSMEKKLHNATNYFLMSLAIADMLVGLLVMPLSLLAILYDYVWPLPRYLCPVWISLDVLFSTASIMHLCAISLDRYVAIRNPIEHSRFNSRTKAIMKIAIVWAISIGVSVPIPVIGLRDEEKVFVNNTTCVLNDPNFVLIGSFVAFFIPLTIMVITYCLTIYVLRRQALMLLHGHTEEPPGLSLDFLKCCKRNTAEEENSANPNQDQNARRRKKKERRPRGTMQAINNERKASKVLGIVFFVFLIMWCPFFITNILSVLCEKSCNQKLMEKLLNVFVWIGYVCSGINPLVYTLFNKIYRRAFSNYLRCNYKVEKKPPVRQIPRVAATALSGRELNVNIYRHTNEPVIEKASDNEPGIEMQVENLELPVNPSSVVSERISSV
Assay: Positive allosteric modulation of human 5-HT2C receptor expressed in human HeLa-K1 cells assessed as potentiation of 5-HT-induced inositol monophosphate release at 10 uM after 20 mins by HTRF assay relative to control
Format: functional, cell-based
Catalogue of Activity readings, one per entry.
Your answer should be a plain number; it is taken to be in %.

{"MOLECULAR STRING": "Fc1ccccc1Cn1cc(CNc2cccnc2)c2ccccc21", "MEASUREMENT UNIT": "%", "Activity": 6}
{"MOLECULAR STRING": "Cc1ccccc1Cn1cc(CNc2cccnc2)c2ccccc21", "MEASUREMENT UNIT": "%", "Activity": 7}

Please find the next compound below.
Item `Clc1cccc(Cn2cc(CNc3cccnc3)c3ccccc32)c1` has what recorded Activity?
26
